These measurements were taken from patent US6355799B1.

test system: johnsongrass (Sorghum halepense, SORHA); experiment: Pre-emerge test, greenhouse herbicide activity screening; type: in vivo; conditions: 63 g ai/ha; rated 14 days after application; 0 = no damage, 100 = complete death
Endpoint Label: Pre-emerge Herbicidal Activity, phytotoxicity rating (0-100), SORHA
# answer = number (no unit)

A selection of reference data follows.
COc1c(Cl)cc(F)c(-n2c(=O)cc(C(F)(F)F)n(C)c2=O)c1NC(=O)c1cnc2ccccc2n1 = 40
COc1c(Cl)cc(F)c(-n2c(=O)cc(C(F)(F)F)n(C)c2=O)c1NC(=O)COCc1ccccc1 = 60
COc1c(Cl)cc(F)c(-n2c(=O)cc(C(F)(F)F)n(C)c2=O)c1NC(=O)C=Cc1ccco1 = 0
COc1c(Cl)cc(F)c(-n2c(=O)cc(C(F)(F)F)n(C)c2=O)c1NC(=O)C=Cc1ccccc1 = 10
COc1c(Cl)cc(F)c(-n2c(=O)cc(C(F)(F)F)n(C)c2=O)c1NC(=O)c1cccc2ccccc12 = 0

query: I am curious: what Pre-emerge Herbicidal Activity, phytotoxicity rating (0-100), SORHA value has been reported for COc1c(Cl)cc(F)c(-n2c(=O)cc(C(F)(F)F)n(C)c2=O)c1NC(=O)c1ccc(F)c(F)c1 ?
result: 95

query: I am curious: what Pre-emerge Herbicidal Activity, phytotoxicity rating (0-100), SORHA value has been reported for COc1c(Cl)cc(F)c(-n2c(=O)cc(C(F)(F)F)n(C)c2=O)c1NC(=O)COc1ccccc1 ?
result: 75
